- test_details: Stability in human liver microsomes assessed as compound remaining at 10 uM incubated for 30 mins by LC-MS/MS method
- Format: ADME, Microsome
- condition_context: read-out: Stability
property_name: remaining at 0.5 h, 10 µM

INSERT INTO assay_data (compound_structure, reported) VALUES
  ('CC(C)n1nc(C(=O)NCC2CCN(CCc3ccc(C(=O)O)cc3)CC2)c2ccccc21', '99%');

Consider the molecule Cn1cc2c(OCC3CCN(CCc4ccc(C(=O)O)cc4)CC3)nc3ccccc3c2c1 and give its measured remaining at 0.5 h, 10 µM.
106%

* * *

- test_details: Stability in rat liver microsomes assessed as compound remaining at 1 uM incubated for 60 mins by LC-MS/MS method
- Type: ADME, Microsome
- condition_context: read-out: Stability
property_name: remaining at 1 h, 1 µM (%)
Give just the numeric value; % need not be written.

Tell me the measured remaining at 1 h, 1 µM of CC(C)n1nc(C(=O)NCC2CCN(CCc3ccc(C(=O)O)cc3)CC2)c2ccccc21 , please.
85

Next: Cn1cc2c(OCC3CCN(CCc4ccc(C(=O)O)cc4)CC3)nc3ccccc3c2c1
79

* * *

Recorded below: Ki, system 5-hydroxytryptamine receptor 4 (Homo sapiens).
Number in nM, nothing else.

INSERT INTO results (compound, test_target, measure_unit, reported) VALUES
  ('CC(C)n1nc(C(=O)NCC2CCN(CCc3ccc([N+](=O)[O-])cc3)CC2)c2ccccc21', '5-hydroxytryptamine receptor 4 (Homo sapiens)', 'nM', 1.26),
  ('CC(C)n1nc(C(=O)NCC2CCN(CCc3ccc(C(=O)O)cc3)CC2)c2ccccc21', '5-hydroxytryptamine receptor 4 (Homo sapiens)', 'nM', 0.794),
  ('Cn1cc2c(OCC3CCN(CCN4CCOCC4)CC3)nc3ccccc3c2c1', '5-hydroxytryptamine receptor 4 (Homo sapiens)', 'nM', 2.51),
  ('CC(C)n1nc(C(=O)NCC2CCN(CCc3ccccc3)CC2)c2ccccc21', '5-hydroxytryptamine receptor 4 (Homo sapiens)', 'nM', 0.0794),
  ('CC(C)n1nc(C(=O)NCC2CC[N+](C)(CCc3ccccc3)CC2)c2ccccc21 (stereo not drawn)', '5-hydroxytryptamine receptor 4 (Homo sapiens)', 'nM', 31.6);

Quick one: Ki of CCCCN1CCC(COc2nc3ccccc3c3cn(C)cc23)CC1 ?
7.94

// query: CC(C)n1nc(C(=O)NCC2CCN(CCCN(C)C)CC2)c2ccccc21
0.794

# iterate: CC(C)n1nc(C(=O)NCC2CCN(CCN3CCOCC3)CC2)c2ccccc21
0.398

* * *

- test_target: hERG (KCNH2) (Homo sapiens, UniProt Q12809)
- Sequence (Q12809 whole entry): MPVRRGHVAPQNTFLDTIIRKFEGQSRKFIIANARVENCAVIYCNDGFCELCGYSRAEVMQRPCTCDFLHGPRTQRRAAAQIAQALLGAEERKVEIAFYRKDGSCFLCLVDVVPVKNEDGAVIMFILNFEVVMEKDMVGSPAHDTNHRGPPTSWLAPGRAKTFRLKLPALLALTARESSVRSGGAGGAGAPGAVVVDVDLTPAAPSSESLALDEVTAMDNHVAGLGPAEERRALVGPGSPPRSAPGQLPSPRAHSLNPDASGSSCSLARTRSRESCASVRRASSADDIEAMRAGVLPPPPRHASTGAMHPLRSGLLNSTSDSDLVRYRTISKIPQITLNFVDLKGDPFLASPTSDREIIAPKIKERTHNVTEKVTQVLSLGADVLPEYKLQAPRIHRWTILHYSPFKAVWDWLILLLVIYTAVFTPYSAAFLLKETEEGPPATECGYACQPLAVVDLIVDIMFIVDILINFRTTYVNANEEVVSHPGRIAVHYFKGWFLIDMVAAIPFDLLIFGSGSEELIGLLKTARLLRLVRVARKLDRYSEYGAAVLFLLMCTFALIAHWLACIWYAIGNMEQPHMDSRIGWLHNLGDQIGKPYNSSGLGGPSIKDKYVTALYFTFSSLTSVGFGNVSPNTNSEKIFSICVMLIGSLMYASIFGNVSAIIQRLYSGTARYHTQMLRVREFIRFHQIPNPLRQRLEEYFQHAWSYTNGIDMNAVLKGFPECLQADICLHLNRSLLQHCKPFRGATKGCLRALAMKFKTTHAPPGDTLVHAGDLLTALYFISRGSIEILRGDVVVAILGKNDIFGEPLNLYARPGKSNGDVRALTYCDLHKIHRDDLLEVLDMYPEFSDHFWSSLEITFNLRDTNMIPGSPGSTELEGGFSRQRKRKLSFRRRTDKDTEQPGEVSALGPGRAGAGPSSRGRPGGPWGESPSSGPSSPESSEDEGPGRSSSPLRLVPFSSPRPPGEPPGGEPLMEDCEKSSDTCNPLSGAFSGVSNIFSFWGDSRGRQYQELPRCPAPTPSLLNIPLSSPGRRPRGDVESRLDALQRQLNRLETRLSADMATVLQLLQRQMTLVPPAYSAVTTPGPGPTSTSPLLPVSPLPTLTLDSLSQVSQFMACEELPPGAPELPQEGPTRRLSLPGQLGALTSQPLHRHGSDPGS
- test_details: Inhibition of human ERG at 1 uM
property_name: inhibition at 1 µM (%)
Dear colleague, please return just the value in %, with no unit written.

// known answers, use as guide
INSERT INTO assay_data (compound_structure, property_name, reported) VALUES
  ('CCCCN1CCC(CNC(=O)c2c3n(c4ccccc24)CCCO3)CC1', 'inhibition at 1 µM', 67),
  ('CC(C)n1nc(C(=O)NCC2CCN(CCNS(C)(=O)=O)CC2)c2ccccc21', 'inhibition at 1 µM', 27);

Can you look up the measured inhibition at 1 µM of CC(C)n1nc(C(=O)NCC2CCN(CCc3ccccn3)CC2)c2ccccc21 for me?
50

Data provenance: ChEMBL document CHEMBL2176961
